Where do these numbers come from? They come from ChEMBL document CHEMBL5329192.

experiment: Selectivity index, ratio of CC50 for cytotoxicity against human HEp-2 cells to EC50 for antiviral activity against Respiratory syncytial virus infected in human HEp-2 cells; assay type: toxicity, cell-based; conditions: read-out: Ratio CC50/EC50

smiles record: CC(=O)O[C@H]1CC[C@@]2(C)C(=CC[C@H]3[C@@H]4CC[C@H](c5cc(-c6ccccc6Cl)c(C#N)c(N)n5)[C@@]4(C)CC[C@@H]32)C1
selectivity ratio: 21.4
//
smiles record: CC(=O)O[C@H]1CC[C@@]2(C)C(=CC[C@H]3[C@@H]4CC[C@H](c5cc(-c6ccccc6F)c(C#N)c(N)n5)[C@@]4(C)CC[C@@H]32)C1
selectivity ratio: 23.2
//
smiles record: CC(=O)O[C@H]1CC[C@@]2(C)C(=CC[C@H]3[C@@H]4CC[C@H](c5cc(-c6ccnc(Br)c6)c(C#N)c(N)n5)[C@@]4(C)CC[C@@H]32)C1
selectivity ratio: 172
//
smiles record: NC(=O)c1ncn([C@@H]2O[C@H](CO)[C@@H](O)[C@H]2O)n1
selectivity ratio: 32.5
